# System: MGC-803
# method notes: Antiproliferative activity against human MGC803 cells after 48 hrs by MTT assay
# Assay type: functional, cell-based
# assay conditions: MGC-803, 48 h
property name: pIC50
Please treat pIC50 as minus the base-10 logarithm of the molar concentration.

Sample records with pIC50:
COc1cc(NC(=O)c2cc(Cc3n[nH]c(=O)c4ccccc34)ccc2F)c2c(c1O)-c1c(OC)c(OC)cc3c1[C@H](C2)N(C)CC3 ... 4.57
COc1cc(N)c2c(c1O)-c1c(OC)c(OC)cc3c1[C@H](C2)N(C)CC3 ... 4.21
CCC(=O)NCC1CCN(c2ccc(NC(=O)Nc3cc(OC)c(O)c4c3C[C@H]3c5c(cc(OC)c(OC)c5-4)CCN3C)cc2C(F)(F)F)CC1 ... 4.69
COc1cc(NC(=O)Nc2ccccc2Cl)c2c(c1OC(=O)Nc1ccccc1Cl)-c1c(OC)c(OC)cc3c1[C@H](C2)N(C)CC3 ... 4.57
COc1cc(NC(=O)Nc2ccc(Cl)c(Cl)c2)c2c(c1O)-c1c(OC)c(OC)cc3c1[C@H](C2)N(C)CC3 ... 4.52
COc1cc(NC(=O)Nc2ccc(C(F)(F)F)cc2)c2c(c1OC(=O)Nc1ccc(C(F)(F)F)cc1)-c1c(OC)c(OC)cc3c1[C@H](C2)N(C)CC3 ... 4.41
COc1cc(NC(=O)Nc2ccc(N3CCC(CNC(=O)OC(C)(C)C)CC3)c(C(F)(F)F)c2)c2c(c1O)-c1c(OC)c(OC)cc3c1[C@H](C2)N(C)CC3 ... 4.63
CCC(=O)NC1CCN(c2ccc(NC(=O)Nc3cc(OC)c(O)c4c3C[C@H]3c5c(cc(OC)c(OC)c5-4)CCN3C)cc2C(F)(F)F)CC1 ... 4.49

Please look up its pIC50: COc1cc(NC(=O)c2ccccc2O)c2c(c1O)-c1c(OC)c(OC)cc3c1[C@H](C2)N(C)CC3 4.25

Please look up its pIC50: COc1cc(NC(=O)Nc2ccc(C)cc2)c2c(c1OC(=O)Nc1ccc(C)cc1)-c1c(OC)c(OC)cc3c1[C@H](C2)N(C)CC3 4.59

Please look up its pIC50: COc1cc(NC(=O)Nc2ccccc2Cl)c2c(c1O)-c1c(OC)c(OC)cc3c1[C@H](C2)N(C)CC3 4.45

Please look up its pIC50: COc1cc(NC(=O)Nc2ccc(C(F)(F)F)cc2)c2c(c1O)-c1c(OC)c(OC)cc3c1[C@H](C2)N(C)CC3 4.24

Please look up its pIC50: COc1cc(NC(=O)Nc2ccc(SC)cc2)c2c(c1O)-c1c(OC)c(OC)cc3c1[C@H](C2)N(C)CC3 4.32

---

# Tested on: MGC-803
# method notes: Antiproliferative activity against human MGC803 cells after 48 hrs by MTT assay
# Type: functional, cell-based
# assay conditions: MGC-803, 48 h
property name: pIC50
Please treat pIC50 as minus the base-10 logarithm of the molar concentration.

Please look up its pIC50: COc1cc(NC(=O)Nc2ccccc2C)c2c(c1OC(=O)Nc1ccccc1C)-c1c(OC)c(OC)cc3c1[C@H](C2)N(C)CC3 4.64

Please look up its pIC50: COc1cc2c3c(c1O)-c1c(ccc(O)c1OC)C[C@@H]3N(C)CC2 3.91

Please look up its pIC50: COc1cc(NC(=O)Nc2ccc(N3CCC(NC(=O)OC(C)(C)C)CC3)c(C(F)(F)F)c2)c2c(c1O)-c1c(OC)c(OC)cc3c1[C@H](C2)N(C)CC3 4.54

Please look up its pIC50: COc1cc(NC(=O)Nc2ccc(F)cc2)c2c(c1OC(=O)Nc1ccc(F)cc1)-c1c(OC)c(OC)cc3c1[C@H](C2)N(C)CC3 4.60

Please look up its pIC50: COc1cc(NC(=O)/C=C/c2ccccc2)c2c(c1O)-c1c(OC)c(OC)cc3c1[C@H](C2)N(C)CC3 4.42

Please look up its pIC50: COc1cc(NC(=O)Nc2ccc(N3CCC(CN)CC3)c(C(F)(F)F)c2)c2c(c1O)-c1c(OC)c(OC)cc3c1[C@H](C2)N(C)CC3 4.95

Please look up its pIC50: COc1cc(NC(=O)c2cccnc2)c2c(c1O)-c1c(OC)c(OC)cc3c1[C@H](C2)N(C)CC3 4.46
